Value source: ChEMBL document CHEMBL5390294

System: H69AR
Test: Cytotoxicity against human NCI-H69AR cells assessed as inhibition of cell growth by SRB assay
Assay type: functional, cell-based
pIC50: −log10 of the molar value.
// reported pIC50 per item

Worked examples follow.
Structure as smiles	Value kind	Value measured
COC(=O)/C=C1/OC(=O)C(C[C@@]2(C)CC[C@]3(C)C(C)=CCC[C@H]3[C@H]2C)=C1O	pIC50	< 4.52
COC1=CC(=O)[C@H](C[C@@]2(C)CC[C@]3(C)C(C)=CCC[C@H]3[C@H]2C)[C@H]1O	pIC50	< 4.52
COC1=CC(=O)C=C(C[C@]2(C)[C@H](C)CC[C@@H]3C(C)=CCC[C@@H]32)C1=O	pIC50	< 4.52
COC1=CC(=O)[C@@H](C[C@@]2(C)CC[C@]3(C)C(C)=CCC[C@H]3[C@H]2C)[C@H]1O	pIC50	< 4.52

-- ask Enter recorded pIC50 with H69AR for `COc1cccc2c1C(=O)c1c(O)c3c(c(O)c1C2=O)C[C@@](O)(C(=O)CO)C[C@@H]3O[C@H]1C[C@H](N)[C@H](O)[C@H](C)O1` here.
-- reply > 6.00

-- ask Check H69AR data and give pIC50 for `C=C1CCC[C@H]2[C@@H]1CC[C@@H](C)[C@@]2(C)CC1=CC(=O)C=C(OC)C1=O` .
-- reply < 4.52

-- ask GET pIC50 | system: H69AR | item: `CCCCOC1=CC(=O)C(O)=C(C[C@@]2(C)CC[C@]3(C)C(C)=CCC[C@H]3[C@H]2C)C1=O`
-- reply 5.11

-- ask State, for H69AR, measured pIC50 of the compound listed here: `COC1=CC(=O)C2=C(C[C@@H]3[C@@]4(C)CCCC(C)(C)[C@@H]4CC[C@@]23C)C1=O`
-- reply < 4.52

-- ask Enter measured pIC50, system H69AR, for the compound shown: `COc1cc(O)cc2c1O[C@]1(C)CC[C@H]3C(C)(C)CCC[C@]3(C)[C@H]1C2`
-- reply < 4.52

-- ask Retrieve pIC50 on H69AR; query `COC1=CC(=O)C(O)=C(C[C@@]2(C)CC[C@]3(C)[C@@H](C)C(=O)CC[C@H]3[C@H]2C)C1=O`
-- reply < 4.52

-- ask Output reported pIC50 of the compound `COC1=CC(=O)C(O)=C(C[C@@]2(C)CC[C@]3(C)C(C=O)=CCC[C@H]3[C@H]2C)C1=O` on H69AR.
-- reply 5.55
